Form field: inhibition of SARS-CoV-2 cytopathic effect (one value per entry).
- Tested on: Vero E6 infected with SARS-CoV-2
- assay name: inhibition of SARS-CoV-2 cytopathic effect; higher = more antiviral protection, active = above 15
- experimental conditions: 1 nM; 48 h
Express your answer in %, writing the number without its unit.

These solved cases illustrate the format of a correct answer.
- compound: "CNC1CCCN(c2c(F)cc3c(=O)c(C(=O)O)cn(C4CC4)c3c2OC)C1 (centres undefined) [balofloxacin]"
  test target: "Vero E6 infected with SARS-CoV-2"
  reading: -2.96
- compound: "CN1CCN(c2cc3c(cc2F)c(=O)c(C(=O)O)cn3-c2ccc(F)cc2)CC1 [difloxacin]"
  test target: "Vero E6 infected with SARS-CoV-2"
  reading: -1.68
- compound: "O=c1cc(-c2ccccc2)oc2cc(O)c(O)c(O)c12 [baicalein]"
  test target: "Vero E6 infected with SARS-CoV-2"
  reading: 1.61
- compound: "CC(C)(C)c1ccc(C(O)CCCN2CCC(C(O)(c3ccccc3)c3ccccc3)CC2)cc1 (centres undefined) [terfenadine]"
  test target: "Vero E6 infected with SARS-CoV-2"
  reading: 1.94
- compound: "CN[C@@H](C)C(=O)N[C@H](C(=O)N1CCC[C@H]1C(=O)Nc1sc(-c2ncco2)nc1-c1ccccc1)C1CCCCC1"
  test target: "Vero E6 infected with SARS-CoV-2"
  reading: -0.55

Query O=c1[nH]cnc2nc[nH]c12 [hypoxanthine] yields inhibition of SARS-CoV-2 cytopathic effect of 4.22

Query c1cn2cc(-c3ccc4cn[nH]c4c3)nc(Nc3ccc(N4CCOCC4)cc3)c2n1 yields inhibition of SARS-CoV-2 cytopathic effect of -4.37

Query COc1ccc(-c2ccc(=N)n(CCCC(=O)O)n2)cc1 [gabazine] yields inhibition of SARS-CoV-2 cytopathic effect of 0.8

Query N#Cc1ccc2[nH]c(O)c(-c3ccc(CN4CCOCC4)cn3)c2c1 yields inhibition of SARS-CoV-2 cytopathic effect of -0.78

Query CC1=C(C(=O)Nc2cc3cn[nH]c3cc2F)C(c2ccc(C(F)(F)F)cc2)CC(=O)N1 (centres undefined) yields inhibition of SARS-CoV-2 cytopathic effect of 1.8

Query O=c1cccc2n1C[C@@H]1CNC[C@H]2C1 [cytisine] yields inhibition of SARS-CoV-2 cytopathic effect of 1.86

Query COc1ccc2[nH]c([S+]([O-])Cc3ncc(C)c(OC)c3C)nc2c1 (centres undefined) [omeprazole] yields inhibition of SARS-CoV-2 cytopathic effect of 0.48

###

- Tested on: Vero E6 infected with SARS-CoV-2
- assay name: SARS-CoV-2 infection rate relative to infected DMSO; higher = more infection, active = 60 or less
- experimental conditions: 24 h
Form field: SARS-CoV-2 infection rate (one value per entry).
Express your answer in %, writing the number without its unit.

These solved cases illustrate the format of a correct answer.
- compound: "CCCCN1CCC(CCC(=O)c2cc(Cl)c(N)cc2OC)CC1 (10 µM)"
  reading: 95
- compound: "CC(C)(C)NC(=O)N[C@H](C(=O)N1C[C@H]2[C@@H]([C@H]1C(=O)NC(CC1CCC1)C(=O)C(N)=O)C2(C)C)C(C)(C)C (stereo partly drawn) [boceprevir] (10 µM)"
  reading: 113
- compound: "CN1CCN(C(c2ccccc2)c2ccc(Cl)cc2)CC1 (stereo not drawn) [chlorcyclizine] (10 µM)"
  reading: 102
- compound: "Nc1nc(O)c2[nH]nnc2n1 [azaguanine-8] (0.833333 µM)"
  reading: 51.5

The compound CCCCCCNC(=O)Nc1ccc(S(=O)(=O)Nc2ccc(CCNC[C@H](O)COc3ccc(O)cc3)cc2)cc1 (10 µM) , when measured on Vero E6 infected with SARS-CoV-2, yielded SARS-CoV-2 infection rate of 112

The compound C[C@]12CCC(=O)C=C1CC[C@@H]1[C@@H]2CC[C@@]2(C)[C@H]1CC[C@]2(C)O [17-alpha-Methyltestosterone] (10 µM) , when measured on Vero E6 infected with SARS-CoV-2, yielded SARS-CoV-2 infection rate of 108

The compound Cc1c(C2CCN(CCc3ccccc3)CC2)noc1-c1ccc(Cl)cc1 (10 µM) , when measured on Vero E6 infected with SARS-CoV-2, yielded SARS-CoV-2 infection rate of 84

The compound Cc1ccc(=O)n(-c2ccc(O)cc2)c1 (10 µM) , when measured on Vero E6 infected with SARS-CoV-2, yielded SARS-CoV-2 infection rate of 94.5

The compound CCCCCCCCCCCCCCSCC(=O)O [tetradecylthioacetic-acid] (10 µM) , when measured on Vero E6 infected with SARS-CoV-2, yielded SARS-CoV-2 infection rate of 112

The compound O=C1OC2(c3ccc(O)cc3Oc3cc(O)ccc32)c2ccccc21 [fluorescein] (10 µM) , when measured on Vero E6 infected with SARS-CoV-2, yielded SARS-CoV-2 infection rate of 110

The compound CCn1cc(C(=O)O)c(=O)c2cnc(N3CCCC3)nc21 [piromidic-acid] (10 µM) , when measured on Vero E6 infected with SARS-CoV-2, yielded SARS-CoV-2 infection rate of 99.5

The compound O=c1ncccn1[C@@H]1O[C@H](CO)[C@@H](O)[C@H]1O [zebularine] (10 µM) , when measured on Vero E6 infected with SARS-CoV-2, yielded SARS-CoV-2 infection rate of 104
